Test System: Serine/threonine-protein kinase pim-1 (Homo sapiens) (UniProt P11309);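 note: reported value is the mean inhibition of PIM1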
Sequence (P11309 whole entry, looked up): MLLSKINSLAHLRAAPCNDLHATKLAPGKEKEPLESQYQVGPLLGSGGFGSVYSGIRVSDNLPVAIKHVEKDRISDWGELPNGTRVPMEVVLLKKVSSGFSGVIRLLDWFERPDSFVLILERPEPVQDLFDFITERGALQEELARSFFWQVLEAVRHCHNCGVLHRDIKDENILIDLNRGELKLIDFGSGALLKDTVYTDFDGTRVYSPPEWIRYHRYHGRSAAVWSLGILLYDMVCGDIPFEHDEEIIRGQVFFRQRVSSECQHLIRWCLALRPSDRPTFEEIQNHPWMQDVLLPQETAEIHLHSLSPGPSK
Conditions Used: at 0.1 µM
Assay Endpoint: inhibition (%)

In [3]: df
Out[3]:
                              smiles_record                               test_system  assay_endpoint  units_label  reported_result
0  NS(=O)(=O)c1ccc(NC=C2C(=O)Nc3ccc4ncsc4c32)cc1  Serine/threonine-protein kinase pim-1 (Homo sapiens) (UniProt P11309)      inhibition            %             2.48
1  COc1cccc(-n2ncc3c(N/N=C/c4ccc(C)cc4)ncnc32)c1  Serine/threonine-protein kinase pim-1 (Homo sapiens) (UniProt P11309)      inhibition            %             1.21
2  NS(=O)(=O)c1ccc(N/N=C2\C(=O)Nc3ccc(Cl)cc32)cc1  Serine/threonine-protein kinase pim-1 (Homo sapiens) (UniProt P11309)      inhibition            %             1.22
3         N#Cc1c(NC(=O)c2ccccc2F)sc2c1CCCC2  Serine/threonine-protein kinase pim-1 (Homo sapiens) (UniProt P11309)      inhibition            %              0.9
4  CN(C)C(=O)O[C@@H]1CN[C@@H](C#Cc2cc3ncnc(Nc4ccc(OCc5cccc(F)c5)c(Cl)c4)c3s2)C1  Serine/threonine-protein kinase pim-1 (Homo sapiens) (UniProt P11309)      inhibition            %             1.41
5  CN(C)c1cc2c(Nc3ccc4c(cnn4Cc4ccccc4)c3)ncnc2cn1  Serine/threonine-protein kinase pim-1 (Homo sapiens) (UniProt P11309)      inhibition            %            -0.22
6  OCc1ccc(-c2nc(-c3ccccn3)c(-c3ccc4c(c3)OCO4)[nH]2)cc1  Serine/threonine-protein kinase pim-1 (Homo sapiens) (UniProt P11309)      inhibition            %             0.78
7  [O-][S+]1CCN(Cc2ccc(-c3ccc4ncnc(Nc5ccc(OCc6ccccc6)c(Cl)c5)c4c3)o2)CC1  Serine/threonine-protein kinase pim-1 (Homo sapiens) (UniProt P11309)      inhibition            %             0.56
8   NC(=O)c1cccc(Nc2nccc(Nc3cccc(F)c3)n2)c1  Serine/threonine-protein kinase pim-1 (Homo sapiens) (UniProt P11309)      inhibition            %            -0.04
9  Cc1ccc2c(-c3ccnc(Nc4cccc(C(F)(F)F)c4)n3)c(-c3ccccc3)nn2n1  Serine/threonine-protein kinase pim-1 (Homo sapiens) (UniProt P11309)      inhibition            %             1.05

###

Test System: Protein-tyrosine kinase 6 (Homo sapiens)
Conditions Used: at 0.1 µM
Description: GSK_PKIS: BRK mean inhibition at 0.1 uM [Nanosyn]
Assay Endpoint: inhibition

                              smiles_record  assay_endpoint  reported_result
0  NS(=O)(=O)c1ccc(-c2cc3ccncc3cc2OCc2ccccc2)cc1      inhibition            2.61%
1  CC(C)c1ccc2c(c1)NC(=O)/C2=N/Nc1ccc(S(N)(=O)=O)cc1      inhibition            0.98%
2  Nc1nccc(-c2c(-c3ccc(F)cc3)nn3cc(C(F)(F)F)ccc23)n1      inhibition            1.57%
3  NS(=O)(=O)c1cccc(Nc2cc(-c3ccc(F)cc3)n[nH]2)c1      inhibition            1.68%
4  O=C1Nc2ccccc2/C1=C/Nc1ccc2[nH]c(=O)[nH]c2c1      inhibition            4.56%
5  CCS(=O)(=O)c1ccc(OC)c(Nc2ncc(-c3cccc(OC)c3)o2)c1      inhibition            6.68%
6  CCn1c(-c2nonc2N)nc2c(C#CC(C)(C)O)nc(OCCNC)cc21      inhibition            5.42%
7  CCS(=O)(=O)c1ccc(OC)c(Nc2nccc(N(C)c3ccc4c(C)n[nH]c4c3)n2)c1      inhibition            18.8%
8  NS(=O)(=O)c1ccc(Nc2cc(-c3cccc(O)c3)n[nH]2)cc1      inhibition            4.78%
9  NS(=O)(=O)c1ccc(N/N=C2\C(=O)Nc3ccc(Cl)cc32)cc1      inhibition            2.27%
